# TEST_SUMMARY: Compound was tested for its binding affinity at Thromboxane A2 receptor by measuring its ability to displace [3H]U-46619 from guinea pig platelets
TEST_READOUT: pKi
Notebook: values listed as pKi are -log10 of the concentration (mol/L).

O=C(O)c1ccc2c(c1)C(SCCNS(=O)(=O)c1cccs1)c1ccccc1CO2 (stereo not given) = 8.24
O=C(O)c1ccc2c(c1)C(SCCNS(=O)(=O)c1ccccc1)c1ccccc1C=C2 (stereo not given) = 7.60
Cc1ccc(S(=O)(=O)NCCSC2c3ccccc3COc3ccc(C(=O)O)cc32)cc1 (stereo not given) = 7.57

Entry COc1ccc(S(=O)(=O)NCCSC2c3ccccc3COc3ccc(C(=O)O)cc32)cc1 (stereo not given) has what pKi?
7.77

Item under review: O=C(O)c1ccc2c(c1)C(SCCNS(=O)(=O)c1ccc(C(F)(F)F)cc1)c1ccccc1CO2 (stereo not given) . Reported pKi?
7.70
